Items are presented alongside their recorded TGI.
System: SK-MEL-5 melanoma
procedureSummary: NCI tumour cell line growth inhibition, 48 h

Consider the reported TGI for these compounds:
c1coc(CNc2ncnc3[nH]ncc23)c1 | > 100 µM
COc1ccc2nc3cc(Cl)ccc3c(NCCNC(=O)Cn3c(=O)n(C)c(=O)c4c3nc3c(c(=O)n(C)c(=O)n3C)[n+]4[O-])c2c1 | > 100 µM
Fc1ccc(C2CC(c3cccc(Nc4ccncc4)c3)=NN2c2ccc(Cl)cc2)cc1 (stereo not drawn) | 3.16 µM
CC1CCC2(O)C3(C)CC4(O)OC2(C1O)C1(O)C3(O)C(OC(=O)c2ccc[nH]2)C(O)(C(C)C)C41C (stereo not drawn) | > 100 µM
COC(=O)c1ccc(-c2nc3cc(Cl)c(Cl)cc3nc2C#N)cc1 | > 100 µM
NC(=O)C(=O)N/N=C1\C(=O)N(c2ccc(Cl)cc2Cl)C(=O)C1C(=O)Nc1ccc(Cl)cc1Cl (stereo not drawn) | > 100 µM
COc1ccc(CCCCl)c(C2=NCCc3cc(OC)c(OC)cc32)c1 | 59.4 µM
COc1ccc(OC)c(-c2nc3n(c2/C=C2/C(=O)Nc4ccccc42)CCS3)c1 | > 100 µM
NS(=O)(=O)c1ccc(-n2nc(-c3ccc(Cl)cc3)cc2-c2cc(O)ccc2O)cc1 | 32.3 µM
CNC(=O)Nc1nc2ccc([N+](=O)[O-])cc2[nH]1 | > 100 µM

Find the measured TGI: item COc1cc(C2=C(c3cc(OC)c4ccccc4c3OC)C(=O)c3ccccc3C2=O)c(OC)c2ccccc12 , target or system SK-MEL-5 melanoma.
> 100 µM

Find the measured TGI: item O=C(Oc1cccc(F)c1OC(=O)c1cccc(O)c1)c1cccc(O)c1 , target or system SK-MEL-5 melanoma.
> 100 µM

----------
System: KM12 colon
procedureSummary: NCI tumour cell line growth inhibition, 48 h
quantityKind: TGI

Consider the reported TGI for these compounds:
COc1ccc(/C=N/N=C(\N)NO)cc1O | > 100 µM
O=C1C(Cl)=C(Nc2cccc(Cl)c2)C(=O)N1Cc1ccc(Cl)cc1 | 14.2 µM
CSC(=Nc1nnc(-c2ccc([N+](=O)[O-])cc2)s1)SC | > 100 µM

TGI lookup needed for CCN(C(=O)N[C@@H](Cc1ccccc1)C(=O)N[C@@H](CC(C)C)C(=O)OC)c1ccccc1 , thanks.
> 100 µM

TGI lookup needed for CC(C)Cn1cnc2c(SCc3ccc(Cl)cc3Cl)nc(N)nc21 , thanks.
> 100 µM

TGI lookup needed for COc1ccc(/C=C/C(=O)c2cc(OC)c(OC)c(OC)c2)cc1OCc1cn(Cc2ccc(F)cc2)nn1 , thanks.
18.2 µM

TGI lookup needed for CC1=C(c2ccccc2)C(c2ccccc2)=C(c2ccccc2)C2(c3ccccc3)C(=O)C(C)CN12 (stereo not drawn) , thanks.
> 100 µM

TGI lookup needed for CN1C2=C(CC3=C1CC(C)(C)CC3=O)C(=O)CC(C)(C)C2 , thanks.
> 100 µM

TGI lookup needed for N#CC1(C#N)C2(c3ccccc3)OC(c3ccccc3)(c3cc4ccccc4cc32)C1(C#N)C#N , thanks.
23.7 µM

TGI lookup needed for CC(=O)C1(Cc2cccc3ccccc23)S(=O)(=O)OCCOS1(=O)=O , thanks.
28.8 µM

TGI lookup needed for CC(=O)OCCCC(NC(=O)OC(C)(C)C)C(=O)NC(CCCOC(C)=O)C(=O)NC(Cc1ccc([N+](=O)[O-])cc1)C(=O)NCC(=O)OCc1ccccc1 (stereo not drawn) , thanks.
29 µM

TGI lookup needed for Cc1cc(-c2cccc3ccccc23)c(C#N)c(=S)n1C1OC(CO)C(O)C(O)C1O (stereo not drawn) , thanks.
> 100 µM

TGI lookup needed for O=C(O)CCN(CCCCN(CCC(=O)O)CCC(=O)O)CCC(=O)O , thanks.
> 100 µM

This collection of values is drawn from PubChem BioAssay (NCI).
